# assay_remarks: Antiproliferative activity against human HL60/Vinc cells
# Type: functional, cell-based
pIC50: −log10 of the molar value.
Rule: pIC50 of 5 or more gives criterion met; anything lower gives criterion not met.

These solved cases illustrate the format of a correct answer.
CC[C@@H](C(=O)[C@@H](C)[C@@H](O)[C@H](C)[C@@H]1O[C@@H]([C@@H](CC)C(=O)NCC2COCCOCCOCCOCCO2)CC[C@@H]1C)[C@H]1O[C@]2(C=C[C@@H](O)[C@]3(CC[C@@](C)([C@H]4CC[C@](O)(CC)[C@H](C)O4)O3)O2)[C@H](C)C[C@@H]1C (stereo partly specified)
criterion not met
CC[C@@H](C(=O)[C@@H](C)[C@@H](O)[C@H](C)[C@@H]1O[C@@H]([C@@H](CC)C(=O)NCCOCCO)CC[C@@H]1C)[C@H]1O[C@]2(C=C[C@@H](O)[C@]3(CC[C@@](C)([C@H]4CC[C@](O)(CC)[C@H](C)O4)O3)O2)[C@H](C)C[C@@H]1C
criterion not met
CC[C@@H](C(=O)[C@@H](C)[C@@H](O)[C@H](C)[C@@H]1O[C@@H]([C@@H](CC)C(=O)NCCc2ccc(F)cc2)CC[C@@H]1C)[C@H]1O[C@]2(C=C[C@@H](O)[C@]3(CC[C@@](C)([C@H]4CC[C@](O)(CC)[C@H](C)O4)O3)O2)[C@H](C)C[C@@H]1C
criterion met

q: Is pIC50 for CC[C@@H](C(=O)[C@@H](C)[C@@H](O)[C@H](C)[C@@H]1O[C@@H]([C@@H](CC)C(=O)NCCc2ccc(O)c(O)c2)CC[C@@H]1C)[C@H]1O[C@]2(C=C[C@@H](O)[C@]3(CC[C@@](C)([C@H]4CC[C@](O)(CC)[C@H](C)O4)O3)O2)[C@H](C)C[C@@H]1C at or above 5?
a: criterion met

q: Is pIC50 for CC[C@@H](C(=O)[C@@H](C)[C@@H](O)[C@H](C)[C@@H]1O[C@@H]([C@@H](CC)C(=O)NCCCCN)CC[C@@H]1C)[C@H]1O[C@]2(C=C[C@@H](O)[C@]3(CC[C@@](C)([C@H]4CC[C@](O)(CC)[C@H](C)O4)O3)O2)[C@H](C)C[C@@H]1C at or above 5?
a: criterion not met

---

IC50 values for the compounds below.
# Test system: LoVo
# assay_remarks: Antiproliferative activity against human LoVo cells
# Type: functional, cell-based
Provide only the numeric value, understood in µM.

Record excerpt, results attached:
CC[C@@H](C(=O)[C@@H](C)[C@@H](O)[C@H](C)[C@@H]1O[C@@H]([C@@H](CC)C(=O)NCCS)CC[C@@H]1C)[C@H]1O[C@]2(C=C[C@@H](O)[C@]3(CC[C@@](C)([C@H]4CC[C@](O)(CC)[C@H](C)O4)O3)O2)[C@H](C)C[C@@H]1C
26.5
CC[C@@H](C(=O)[C@@H](C)[C@@H](O)[C@H](C)[C@@H]1O[C@@H]([C@@H](CC)C(=O)NCCc2ccc(F)cc2)CC[C@@H]1C)[C@H]1O[C@]2(C=C[C@@H](O)[C@]3(CC[C@@](C)([C@H]4CC[C@](O)(CC)[C@H](C)O4)O3)O2)[C@H](C)C[C@@H]1C
4.1
CC[C@@H](C(=O)[C@@H](C)[C@@H](O)[C@H](C)[C@@H]1O[C@@H]([C@@H](CC)C(=O)Nc2ccc(NC(=O)[C@H](CC)[C@H]3CC[C@H](C)[C@H]([C@@H](C)[C@H](O)[C@H](C)C(=O)[C@H](CC)[C@H]4O[C@]5(C=C[C@@H](O)[C@]6(CC[C@@](C)([C@H]7CC[C@](O)(CC)[C@H](C)O7)O6)O5)[C@H](C)C[C@@H]4C)O3)cc2)CC[C@@H]1C)[C@H]1O[C@]2(C=C[C@@H](O)[C@]3(CC[C@@](C)([C@H]4CC[C@](O)(CC)[C@H](C)O4)O3)O2)[C@H](C)C[C@@H]1C
8.1

// moving on: another record for IC50
q: Which IC50 value belongs to CC[C@@H](C(=O)[C@@H](C)[C@@H](O)[C@H](C)[C@@H]1O[C@@H]([C@@H](CC)C(=O)NCCOCCO)CC[C@@H]1C)[C@H]1O[C@]2(C=C[C@@H](O)[C@]3(CC[C@@](C)([C@H]4CC[C@](O)(CC)[C@H](C)O4)O3)O2)[C@H](C)C[C@@H]1C ?
a: 36.7

---

Ratio IC50 values for the compounds below.
# System: HL-60
# assay_remarks: Resistance index, ratio of IC50 for human HL60/Vinc cells to IC50 for human HL60 cells
# Type: functional
Response field accepts a number only; no unit should be typed.

CC[C@@H](C(=O)[C@@H](C)[C@@H](O)[C@H](C)[C@@H]1O[C@@H]([C@@H](CC)C(=O)NCCc2ccc(O)c(O)c2)CC[C@@H]1C)[C@H]1O[C@]2(C=C[C@@H](O)[C@]3(CC[C@@](C)([C@H]4CC[C@](O)(CC)[C@H](C)O4)O3)O2)[C@H](C)C[C@@H]1C
2.48

q: Which Ratio IC50 value belongs to CC[C@@H](C(=O)[C@@H](C)[C@@H](O)[C@H](C)[C@@H]1O[C@@H]([C@@H](CC)C(=O)NCCCCN)CC[C@@H]1C)[C@H]1O[C@]2(C=C[C@@H](O)[C@]3(CC[C@@](C)([C@H]4CC[C@](O)(CC)[C@H](C)O4)O3)O2)[C@H](C)C[C@@H]1C ?
a: 6.22

q: Which Ratio IC50 value belongs to CC[C@@H](C(=O)[C@@H](C)[C@@H](O)[C@H](C)[C@@H]1O[C@@H]([C@@H](CC)C(=O)NCCCCNC(=O)[C@H](CC)[C@H]2CC[C@H](C)[C@H]([C@@H](C)[C@H](O)[C@H](C)C(=O)[C@H](CC)[C@H]3O[C@]4(C=C[C@@H](O)[C@]5(CC[C@@](C)([C@H]6CC[C@](O)(CC)[C@H](C)O6)O5)O4)[C@H](C)C[C@@H]3C)O2)CC[C@@H]1C)[C@H]1O[C@]2(C=C[C@@H](O)[C@]3(CC[C@@](C)([C@H]4CC[C@](O)(CC)[C@H](C)O4)O3)O2)[C@H](C)C[C@@H]1C ?
a: 4.95

---

# Tested on: Staphylococcus epidermidis
# assay_remarks: Antibacterial activity against methicillin-resistant Staphylococcus epidermidis 461/11
# Type: functional
property_measured: MIC (µg/mL)
Provide only the numeric value, understood in µg/mL.

Record excerpt, results attached:
O=C(O)c1cn(C2CC2)c2cc(N3CCNCC3)c(F)cc2c1=O [CIPROFLOXACIN]
0.25
CC[C@@H](C(=O)[C@@H](C)[C@@H](O)[C@H](C)[C@@H]1O[C@@H]([C@@H](CC)C(=O)NCCOCCO)CC[C@@H]1C)[C@H]1O[C@]2(C=C[C@@H](O)[C@]3(CC[C@@](C)([C@H]4CC[C@](O)(CC)[C@H](C)O4)O3)O2)[C@H](C)C[C@@H]1C
64
CC[C@@H](C(=O)[C@@H](C)[C@@H](O)[C@H](C)[C@@H]1O[C@@H]([C@@H](CC)C(=O)NCCS)CC[C@@H]1C)[C@H]1O[C@]2(C=C[C@@H](O)[C@]3(CC[C@@](C)([C@H]4CC[C@](O)(CC)[C@H](C)O4)O3)O2)[C@H](C)C[C@@H]1C
32
CC[C@@H](C(=O)[C@@H](C)[C@@H](O)[C@H](C)[C@@H]1O[C@@H]([C@@H](CC)C(=O)O)CC[C@@H]1C)[C@H]1O[C@]2(C=C[C@@H](O)[C@]3(CC[C@@](C)([C@H]4CC[C@](O)(CC)[C@H](C)O4)O3)O2)[C@H](C)C[C@@H]1C [SALINOMYCIN]
16

// moving on: another record for MIC
q: Which MIC value belongs to CC[C@@H](C(=O)[C@@H](C)[C@@H](O)[C@H](C)[C@@H]1O[C@@H]([C@@H](CC)C(=O)NCCCCN)CC[C@@H]1C)[C@H]1O[C@]2(C=C[C@@H](O)[C@]3(CC[C@@](C)([C@H]4CC[C@](O)(CC)[C@H](C)O4)O3)O2)[C@H](C)C[C@@H]1C ?
a: 64

---

# assay_remarks: Antiproliferative activity against human LoVo/DX cells
# Type: functional, cell-based
property_measured: log10 of IC50 (log10 of the value in µM)
Values are log10 of IC50 in µM.

CC[C@@H](C(=O)[C@@H](C)[C@@H](O)[C@H](C)[C@@H]1O[C@@H]([C@@H](CC)C(=O)NCCCCN)CC[C@@H]1C)[C@H]1O[C@]2(C=C[C@@H](O)[C@]3(CC[C@@](C)([C@H]4CC[C@](O)(CC)[C@H](C)O4)O3)O2)[C@H](C)C[C@@H]1C
1.10
CC[C@@H](C(=O)[C@@H](C)[C@@H](O)[C@H](C)[C@@H]1O[C@@H]([C@@H](CC)C(=O)NCCCCNC(=O)[C@H](CC)[C@H]2CC[C@H](C)[C@H]([C@@H](C)[C@H](O)[C@H](C)C(=O)[C@H](CC)[C@H]3O[C@]4(C=C[C@@H](O)[C@]5(CC[C@@](C)([C@H]6CC[C@](O)(CC)[C@H](C)O6)O5)O4)[C@H](C)C[C@@H]3C)O2)CC[C@@H]1C)[C@H]1O[C@]2(C=C[C@@H](O)[C@]3(CC[C@@](C)([C@H]4CC[C@](O)(CC)[C@H](C)O4)O3)O2)[C@H](C)C[C@@H]1C
0.59
CC[C@@H](C(=O)[C@@H](C)[C@@H](O)[C@H](C)[C@@H]1O[C@@H]([C@@H](CC)C(=O)NCCc2ccc(O)c(O)c2)CC[C@@H]1C)[C@H]1O[C@]2(C=C[C@@H](O)[C@]3(CC[C@@](C)([C@H]4CC[C@](O)(CC)[C@H](C)O4)O3)O2)[C@H](C)C[C@@H]1C
0.63
CC[C@@H](C(=O)[C@@H](C)[C@@H](O)[C@H](C)[C@@H]1O[C@@H]([C@@H](CC)C(=O)NCC2COCCOCCOCCOCCO2)CC[C@@H]1C)[C@H]1O[C@]2(C=C[C@@H](O)[C@]3(CC[C@@](C)([C@H]4CC[C@](O)(CC)[C@H](C)O4)O3)O2)[C@H](C)C[C@@H]1C (stereo not given in full)
0.93

// moving on: another record for log10 of IC50
q: Which log10 of IC50 value belongs to CC[C@@H](C(=O)[C@@H](C)[C@@H](O)[C@H](C)[C@@H]1O[C@@H]([C@@H](CC)C(=O)O)CC[C@@H]1C)[C@H]1O[C@]2(C=C[C@@H](O)[C@]3(CC[C@@](C)([C@H]4CC[C@](O)(CC)[C@H](C)O4)O3)O2)[C@H](C)C[C@@H]1C ?
a: 0.00
